System: Escherichia coli TOP10;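 also: peptides expressed intracellularly from a pBAD plasmid library in pooled LB shake-flask culture, induced with 0.3% L-arabinose, DNA abundance read by NGS, three biological replicates, DESeq2 with apeglm shrinkage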
Test protocol: shrunken log2 fold change of peptide-encoding DNA abundance (4.5 h post-induction vs induction); higher = less antimicrobial activity (less host growth inhibition)
Test context: time post-induction: 4.5 h; library: site-saturation at positions 5, 18, 19, 20
Measurement name: shrunken log2 fold change
Lab note: record just the number, no unit beside it.

Residue codes | System name | shrunken log2 fold change
RRIRKRPPRLPRPRPRPGRQPRP | Escherichia coli TOP10 | 0.143
RRIRPRPPRLPRPRPRPCGIPRP | Escherichia coli TOP10 | -0.0938
RRIRFRPPRLPRPRPRPEGLPRP | Escherichia coli TOP10 | -0.0574
RRIRVRPPRLPRPRPRPGDQPRP | Escherichia coli TOP10 | 0.0324
RRIRCRPPRLPRPRPRPPSKPRP | Escherichia coli TOP10 | 0.133
RRIRVRPPRLPRPRPRPFDEPRP | Escherichia coli TOP10 | -0.242
RRIRGRPPRLPRPRPRPCPRPRP | Escherichia coli TOP10 | 0.23
RRIRQRPPRLPRPRPRPDWSPRP | Escherichia coli TOP10 | -0.0861
RRIRYRPPRLPRPRPRPAAGPRP | Escherichia coli TOP10 | -0.197
RRIRTRPPRLPRPRPRPDPAPRP | Escherichia coli TOP10 | 0.0522

Query block: # shrunken log2 fold change lookup, item `RRIRCRPPRLPRPRPRPWAMPRP`
Result block: -0.226

Query block: Requested field: shrunken log2 fold change. Item: `RRIRCRPPRLPRPRPRPTYYPRP`
Result block: -0.758

Query block: Field request: shrunken log2 fold change | item: `RRIRARPPRLPRPRPRPFTKPRP`
Result block: -0.295

Query block: Fill in: shrunken log2 fold change of `RRIRPRPPRLPRPRPRPQKVPRP` is ___
Result block: 0.0449

Query block: Suppose we examine the sequence `RRIRSRPPRLPRPRPRPGCCPRP` ; what shrunken log2 fold change value has been reported?
Result block: 0.396

Query block: Reported shrunken log2 fold change, sequence `RRIRQRPPRLPRPRPRPMSVPRP` : ____
Result block: 0.0173

Query block: Name the reported shrunken log2 fold change value associated with the sequence `RRIRYRPPRLPRPRPRPFFNPRP`
Result block: -0.811
